Assay: Novel Modifiers of Survival Motor Neuron (SMN) Protein: Gene Identification via Genome-wide siRNA Screen;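 note: luminescence tracks full-length SMN protein made from the SMN2 reporter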
Details: HEK293T SMN2-luciferase reporter, siRNA knockdown, 72 h; actives lie on both sides
Among all 31,000 sequences or so, about 1,400 (4.5%) were called active. The entries come from a sample that favours actives as a whole.
# binning rule on median seed-adjusted z-score: group 1 = under -0.4, group 2 = from -0.4 up to 0.1, group 3 = 0.1 and over

| sequence-chain | assigned-label |
| --- | --- |
| GCAGAGUGCUUCCCAGUGATT against JRK | group 1 |
| GUACCUCGUAAAUCACGAATT against NFAT5 | group 3 |
| AGCACGAAGGCAAACCCUATT against CRIP1 | group 1 |
| GACAUCGCAUGGUACAAGATT against NFASC | group 3 |
| CCGCUAAUGUUCAAGGACATT against UNC5B | group 2 |
| GGUUGACAGUGUGCCUAAATT against NRIP1 | group 3 |
| GCGGUACUUUGAGCAGUUATT against P4HA2 | group 2 |
| GCAAGAGUCGUUCACCAGATT against MGMT | group 2 |
| GCAGCUUCACCUAUCCGAUTT against KLF4 | group 3 |
| GCAAGCAGGUUAUCAACGATT against FLII | group 2 |
| GAUCAGGUGCUGUUCCAUATT against DGAT2L3 | group 3 |
| GACCAAGCGCAAAACCAAATT against HOMEZ | group 2 |
| CAGGAGUGAUUAAACGGUUTT against GNAI3 | group 2 |
| ACUGGACAGUGGUAUCAGATT against UBASH3A | group 1 |
| UGACGUAGGCAUAAACGGATT against PCDH11Y | group 3 |
| GGAAAGGAAUGGUCACGAATT against ZNF321 | group 1 |
| GAACAGGCGUGCCAAGUCUTT against MIXL1 | group 2 |
| GCUUCACCAUCGAAUCCAATT against FLT4 | group 1 |
| CGAGGAUAUUGACUGGGUATT against PRKCZ | group 2 |
| GCAAGGCUAUUAUAGAUCATT against CTNNA3 | group 3 |
| UGCUCUCUGUUGCAUUGAATT against IAPP | group 2 |
| GUCUUUAAUGCGCACUAUATT against FEZF1 | group 3 |
| GGAUGUGCACUCUCAUUGATT against COPA | group 1 |
| GAAUUGUUUUAGCUAACGATT against PGM2 | group 3 |
| CUAUCACUCUGGAACUGGATT against SMC2 | group 2 |
| CCCUUCUUGUUUACAUGAATT against SLC25A43 | group 2 |
| GCAGGAUGCUGUCAACAUATT against PSMD4 | group 3 |
| GGAAUAGAACAAUUGAAAATT against ZDHHC3 | group 3 |
| GGCUAUUAACCGAAGCAAATT against TSPAN31 | group 1 |
| CAUUCGCCGUUACCUGCCATT against POLR2F | group 1 |
| GGAACUUACUACAACUCCATT against TMPRSS6 | group 3 |
| GCGAGAGUCUGCAUAGGUATT against GRIN2D | group 2 |
| GCCUUAUGUAUGCACAGAATT against HKR1 | group 2 |
| GUGGAACAAUUGUAACAGATT against ETF1 | group 1 |
| AAACAACUCGAUUUCGAAATT against PCDHB13 | group 2 |
| GCAGUAAUGUUGAUAUAGATT against VDAC3 | group 3 |
| AAUUCCUCUUCAACAUGUATT against HOXD9 | group 2 |
| CCAUGGCAGUACCAACUAGTT against CREM | group 1 |
| GCAUCCUUGUGUACAUGUGTT against USP41 | group 3 |
| GGAGAAUGCAAUCCGCUUATT against SVIL | group 2 |
| GGUUUGGAAUGUUCGAGUUTT against SLC25A1 | group 3 |
| CAGAGACUGUUAUCCAUUUTT against SLC25A36 | group 3 |
| GAAUUAAAGAUUUGGUUGATT against EFCAB1 | group 1 |
| UCACUGUCCCAGACACCAATT against EPO | group 3 |
| GGUAAACGCAAAGCACUGATT against MAP2K4 | group 2 |
| CUAACGUAGAGGAAGCAUUTT against RAB11B | group 1 |
| GCUCGAUUAACAAAAUAUATT against SLC30A5 | group 3 |
| GAGUGGGCGUGGAUAGAAATT against PSMC2 | group 1 |
| CUAAGAGACUAAAUGCAAATT against SUCLG2 | group 1 |
| AGACCAUCCCUAACGGAUATT against PRELP | group 2 |

---

Assay: Novel Modifiers of Survival Motor Neuron (SMN) Protein: Gene Identification via Genome-wide siRNA Screen;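 note: luminescence tracks full-length SMN protein made from the SMN2 reporter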
Settings: HEK293T SMN2-luciferase reporter, siRNA knockdown, 72 h; actives lie on both sides
Out of some 31,000 sequences screened, about 1,400 (4.5%) were called active.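 The calls were made as follows: active = median seed-adjusted z-score above 1 or below -1; inactive = the rest.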 This excerpt belongs to a sample that is enriched for actives.
Outcome codes: TRUE = active, FALSE = inactive

| sequence-chain | assigned-label |
| --- | --- |
| GAGAAAUCGUGCUCAGUUATT against CNOT8 | FALSE |
| CGUCAAAAGAGCCCAUAAATT against ENPP5 | FALSE |
| GCACUGAUGACAACAACUATT against HTR1F | FALSE |
| GUACAGACCUGAGAAUUCUTT against CTSL2 | TRUE |
| CCCUGUCUAUAAUUUCUUUTT against DGCR8 | FALSE |
| AGUUUGUGAUAUCAUGAGATT against FRMPD2 | FALSE |
| CCUGGACCCUGAACUCACATT against LILRA4 | FALSE |
| CUGUAUGGGUGGUCAAUCATT against ABCA1 | TRUE |
| CGUCAUGAGCCUCUACGAATT against PTPN5 | FALSE |
| GGUUAGACAUCAGUCCUUUTT against DHX15 | TRUE |
| GCAAUUACAGGCUAGUGAATT against AKAP9 | TRUE |
| GAGAGAAACUGUCAGAGUATT against RNF185 | FALSE |
| GGUGGUUGCUGUAUAUGGATT against KCTD9 | TRUE |
| GGAAUUUAAGUGAUAGUGATT against CPEB2 | FALSE |
| CUAGCAACAUGGACAUAUUTT against STS | FALSE |
| CUGUCAAUGUUAUUACUCUTT against TSG101 | TRUE |
| UUGUGGAUGUUGAACCUAATT against SNRPD1 | TRUE |
| GGGACACGCUAAAAGGAGATT against GNB4 | FALSE |
| GGAGAGUGGUGAUCGGAUATT against MYOM3 | FALSE |
| GGUCCAAGCUGAUUACCCUTT against UNC13A | TRUE |
| ACUUUGCUCCUACUAUUCATT against NEGR1 | FALSE |
| CACCUCUAAUCAUCGAUGATT against UAP1 | FALSE |
| CUACCUCUCUUGUUUGGAATT against TRIP13 | TRUE |
| CCUUCAUUAAUGAGUCAUATT against ZNF426 | FALSE |
| CUUUGUCUAUGUCACCAUUTT against IMP5 | FALSE |
| CGAGUACCGGGUCAAGAUATT against PLXND1 | FALSE |
| CAACUUUGAGGUAAAGUCATT against PRPF19 | FALSE |
| GCAGAUAAGAUCAAGAUCATT against SRPK3 | FALSE |
| GGUCAUAGGUUUUGGAUCUTT against HIATL1 | FALSE |
| AGCUCACAAGGAUCCCAAUTT against THPO | FALSE |
| GAACAUCGUUAUAAGUUGATT against CNTN3 | FALSE |
| AGAUGUUCUGAGGCUGAUATT against OASL | TRUE |
| GAGCGAGUUUUACCUGAUATT against ABCA10 | FALSE |
| GGCACUAUUCUGCUAAGAATT against RAPGEF5 | FALSE |
| CUAUAGCAAGUGAACUAAATT against COG5 | FALSE |
| GCACAGAUGAAGCCCGCUUTT against ARL11 | TRUE |
| GGAUGAGAAGGAUAAUGAUTT against IRF6 | TRUE |
| CCACGAACAAUAAUCCCAATT against KCNA3 | FALSE |
| GCAGACUCUCGACAUCCGATT against MAFK | TRUE |
| GGGAUUAUCUUGCUUCCAATT against LPCAT2 | FALSE |
| CGGCGGAGUUUAUAGAUAATT against BCKDHA | FALSE |
| GGACGGAAAACAGUCUUAATT against OAS2 | FALSE |
| GGUGGAACUUUUAAUCAAATT against GABPB2 | FALSE |
| GACCGACAUUUGUGAAGAATT against ZNF547 | FALSE |
| CGACAAUGCGGUCAACCUUTT against CD28 | FALSE |
| CAUUCGGAGAAGUCGCAAATT against DDX59 | FALSE |
| GGCUCUUACAAGUCCUUAUTT against CHRM2 | FALSE |
| GCAUUGUCCGUCUUCAUCATT against GLP1R | FALSE |
| GAGCGAAGAUGUCCGAAAATT against MIPEP | FALSE |
| GAAUUCACUUCAGAGCAAUTT against LMO4 | FALSE |
